Exercise: state measured IC50 for each of the compounds provided.
- EXPERIMENT NOTES: MTT cytotoxicity on normal lung fibroblast
- Format: cell-based, human
- EXPERIMENTAL SETUP: human, WI-38 normal lung fibroblast cells
Write the value in µM as a bare number.

Query: Param item = COc1cccc2c1C(=O)c1c(O)c3c(c(O)c1C2=O)C[C@@](O)(C(=O)CO)C[C@@H]3O[C@H]1C[C@H](N)[C@H](O)[C@H](C)O1 [DOX, Doxorubicin, reference compound] ; retrieve measured IC50.
Result: 6.72

Query: Param item = O=C(CCc1nc2cc(Cl)ccc2[nH]c1=O)Nc1ccccc1O ; retrieve measured IC50.
Result: 86.1
